Cited source for all entries: patent US8791123B2

Measured IC50 of individual entries
Tgt: TrkA (histidine-tagged recombinant human TrkA, cytoplasmic domain) (Homo sapiens (Human), UniProt P04629)
Sequence (P04629 440-796): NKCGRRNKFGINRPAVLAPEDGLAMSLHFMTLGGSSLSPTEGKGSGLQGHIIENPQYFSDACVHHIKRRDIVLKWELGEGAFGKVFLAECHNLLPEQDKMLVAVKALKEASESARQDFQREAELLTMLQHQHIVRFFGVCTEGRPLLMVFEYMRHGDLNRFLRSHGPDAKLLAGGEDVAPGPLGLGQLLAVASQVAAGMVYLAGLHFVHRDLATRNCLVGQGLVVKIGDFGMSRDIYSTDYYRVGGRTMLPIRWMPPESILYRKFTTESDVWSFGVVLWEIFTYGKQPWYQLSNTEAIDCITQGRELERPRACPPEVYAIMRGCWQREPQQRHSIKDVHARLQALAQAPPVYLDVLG
Assay Remarks: TrkA ELISA Assay
Type: biochemical
Settings: Table 1; ELISA, 500 μM ATP; read-out: TrkA Enzyme IC50
Where a name gives a salt, the structure may show the parent alone.

- Compound: "COc1ncc(F)cc1[C@H]1CCCN1c1ccn2ncc(C(=O)Nc3ccn(C)n3)c2n1"
  IC50, nM: 21.8
- Compound: "O=C(NCCO)c1cnn2ccc(N3CCC[C@@H]3c3cncc(F)c3)nc12"
  IC50, nM: 30.9
- Compound: "COCCOc1cc(F)cc([C@H]2CCCN2c2ccn3ncc(C(N)=O)c3n2)c1"
  IC50, nM: 34.9
- Compound: "CONC(=O)c1cnn2ccc(N3CCC[C@@H]3c3cc(F)cnc3OC)nc12"
  IC50, nM: 1.77
- Compound: "Cc1cccnc1NC(=O)c1cnn2ccc(N3CCC[C@@H]3c3cc(F)ccc3F)nc12"
  IC50, nM: 2.3
- Compound: "CC(C)NC(=O)c1cnn2ccc(N3[C@H](CO)CC[C@@H]3c3cncc(F)c3)nc12"
  IC50, nM: 15.3
- Compound: "COc1ncc(F)cc1[C@H]1CCCN1c1ccn2ncc(C(=O)NC3CCN(CCO)CC3)c2n1"
  IC50, nM: 4.3
- Compound: "CCc1ncc(F)cc1[C@H]1CCCN1c1ccn2ncc(C(=O)N[C@H]3CC[C@H](O)C3)c2n1"
  IC50, nM: 12.7
- Compound: "CONC(=O)c1cnn2ccc(N3CCC[C@@H]3c3cccc(F)c3)nc12"
  IC50, nM: 6.95
- Compound: "COc1ncc(F)cc1[C@H]1CCCN1c1ccn2ncc(C(N)=O)c2n1"
  IC50, nM: 2.55
- Compound: "Cc1ncc(F)cc1[C@H]1CCCN1c1ccn2ncc(C(=O)N[C@H]3CC[C@H](O)C3)c2n1"
  IC50, nM: 6.8
- Compound: "O=C(N[C@H]1CC[C@H](O)CC1)c1cnn2ccc(N3CCC[C@@H]3c3cccc(F)c3)nc12"
  IC50, nM: 1.2
- Compound: "CNC(=O)c1cnn2ccc(N3CCC[C@@H]3c3cc(F)cnc3OC)nc12"
  IC50, nM: 2.1
- Compound: "COc1ncc(F)cc1[C@H]1CCCN1c1ccn2ncc(C(=O)NOCCOC(C)(C)C)c2n1"
  IC50, nM: 18.1
- Compound: "O=C(NOCC1CC1)c1cnn2ccc(N3CCC[C@@H]3c3cc(F)ccc3F)nc12"
  IC50, nM: 0.57
- Compound: "COc1ncc(F)cc1[C@H]1CCCN1c1ccn2ncc(C(=O)Nc3ccc(=O)[nH]c3)c2n1"
  IC50, nM: 3
- Compound: "CC(C)NC(=O)c1cnn2ccc(N3C[C@@H](O)C[C@@H]3c3cccc(F)c3)nc12"
  IC50, nM: 5.8
- Compound: "COc1ncc(F)cc1[C@H]1CCCN1c1ccn2ncc(C(=O)NCC(O)CO)c2n1 (some centres unmarked)"
  IC50, nM: 6.1
- Compound: "C[C@@H](NC(=O)c1cnn2ccc(N3CCC[C@@H]3c3cncc(F)c3)nc12)C(F)(F)F"
  IC50, nM: 8
- Compound: "NS(=O)(=O)CCNC(=O)c1cnn2ccc(N3CCC[C@@H]3c3cc(F)ccc3F)nc12"
  IC50, nM: 1.5
- Compound: "CC(C)NC(=O)c1cnn2ccc(N3CCC[C@@H]3c3cc(F)cn(C)c3=O)nc12"
  IC50, nM: 12.3
- Compound: "O=C(N[C@@H]1CCNC[C@@H]1F)c1cnn2ccc(N3CCC[C@@H]3c3cc(F)ccc3F)nc12 [Example 61, hydrochloride]"
  IC50, nM: 1.95
- Compound: "O=C(c1cnn2ccc(N3CCC[C@@H]3c3cncc(F)c3)nc12)N1CC(CO)C1"
  IC50, nM: 470
- Compound: "C[C@@H](CO)NC(=O)c1cnn2ccc(N3CCC[C@@H]3c3cc(F)ccc3F)nc12"
  IC50, nM: 1.8
- Compound: "C[C@H](O)[C@@H](CO)NC(=O)c1cnn2ccc(N3CCC[C@@H]3c3cc(F)ccc3F)nc12"
  IC50, nM: 27.2
- Compound: "O=C(NC[C@H](O)CO)c1cnn2ccc(N3CCC[C@@H]3c3cc(F)ccc3C(F)(F)F)nc12"
  IC50, nM: 2.53
- Compound: "CC(C)(C)[C@@H](CO)NC(=O)c1cnn2ccc(N3CCC[C@@H]3c3cc(F)ccc3F)nc12"
  IC50, nM: 12.3
- Compound: "Cn1cc(F)cc([C@H]2CCCN2c2ccn3ncc(C(=O)Nc4ccc(F)cn4)c3n2)c1=O"
  IC50, nM: 10.1
- Compound: "COc1ncc(F)cc1[C@H]1CCCN1c1ccn2ncc(C(=O)NCCCO)c2n1"
  IC50, nM: 1.1
- Compound: "COc1ncc(F)cc1[C@H]1CCCN1c1ccn2ncc(C(=O)NC(CO)CO)c2n1"
  IC50, nM: 25.6
- Compound: "CC[C@@H](CO)NC(=O)c1cnn2ccc(N3CCC[C@@H]3c3cc(F)ccc3F)nc12"
  IC50, nM: 2.5
- Compound: "O=C(N[C@H]1CC[C@H](O)C1)c1cnn2ccc(N3CCC[C@@H]3c3cncc(F)c3)nc12"
  IC50, nM: 25.4

---

Reported values of pIC50 for individual entries
Tgt: TrkA (histidine-tagged recombinant human TrkA, cytoplasmic domain) (Homo sapiens (Human))
Assay Remarks: TrkA ELISA Assay
Format: biochemical
Settings: Table 1; ELISA, 500 μM ATP; read-out: TrkA Enzyme IC50
pIC50: −log10 of the molar value.

- Cpd Smiles: "CC(C)(CF)NC(=O)c1cnn2ccc(N3CCC[C@@H]3c3cc(F)ccc3F)nc12"
  Tgt: "TrkA (histidine-tagged recombinant human TrkA, cytoplasmic domain) (Homo sapiens (Human))"
  pIC50: 9.10
- Cpd Smiles: "O=C(NC1(CO)CC1)c1cnn2ccc(N3CCC[C@@H]3c3cncc(F)c3)nc12"
  Tgt: "TrkA (histidine-tagged recombinant human TrkA, cytoplasmic domain) (Homo sapiens (Human))"
  pIC50: 7.79
- Cpd Smiles: "O=C(NCCn1ccnc1)c1cnn2ccc(N3CCC[C@@H]3c3cc(F)ccc3F)nc12"
  Tgt: "TrkA (histidine-tagged recombinant human TrkA, cytoplasmic domain) (Homo sapiens (Human))"
  pIC50: 8.55
- Cpd Smiles: "CC(C)(C)NC(=O)c1cnn2ccc(N3CCC[C@@H]3c3cncc(F)c3)nc12"
  Tgt: "TrkA (histidine-tagged recombinant human TrkA, cytoplasmic domain) (Homo sapiens (Human))"
  pIC50: 7.98

---

Tgt: TrkA (histidine-tagged recombinant human TrkA, cytoplasmic domain) (Homo sapiens (Human))
Assay Remarks: TrkA ELISA Assay
Assay type: biochemical
Settings: Table 1; ELISA, 500 μM ATP; read-out: TrkA Enzyme IC50
// thresholds for IC50 classes: bin A (below 6 nM), bin B (6 nM to below 50 nM), bin C (50 nM or more)

- Cpd Smiles: "COc1ncc(F)cc1[C@H]1CCCN1c1ccn2ncc(C(=O)NC[C@@H](C)O)c2n1"
  Cat: "bin A"
- Cpd Smiles: "COc1ccc(F)cc1[C@H]1CCCN1c1ccn2ncc(C(=O)NCCN3CCOCC3)c2n1"
  Cat: "bin A"
- Cpd Smiles: "COCCOc1ccc(F)cc1[C@H]1CCCN1c1ccn2ncc(C(N)=O)c2n1"
  Cat: "bin A"
- Cpd Smiles: "COc1ncc(F)cc1[C@H]1CCCN1c1ccn2ncc(C(=O)N[C@H]3CC[C@H](O)C3)c2n1"
  Cat: "bin A"
- Cpd Smiles: "C[C@@H](NC(=O)c1cnn2ccc(N3CCC[C@@H]3c3cncc(F)c3)nc12)C1CC1"
  Cat: "bin B"
- Cpd Smiles: "O=C(NCC(F)(F)F)c1cnn2ccc(N3CCC[C@@H]3c3cncc(F)c3)nc12"
  Cat: "bin A"
- Cpd Smiles: "CC(C)[C@H](CO)NC(=O)c1cnn2ccc(N3CCC[C@@H]3c3cncc(F)c3)nc12"
  Cat: "bin B"
- Cpd Smiles: "O=C(N[C@H]1CCC[C@@H]1O)c1cnn2ccc(N3CCC[C@@H]3c3cncc(F)c3)nc12"
  Cat: "bin C"
- Cpd Smiles: "C[C@H](NC(=O)c1cnn2ccc(N3[C@@H](c4cncc(F)c4)CC[C@@]3(C)CO)nc12)C(F)(F)F"
  Cat: "bin C"
- Cpd Smiles: "NCCCNC(=O)c1cnn2ccc(N3CCC[C@@H]3c3cc(F)c[nH]c3=O)nc12"
  Cat: "bin B"
- Cpd Smiles: "CC(C)(CO)CNC(=O)c1cnn2ccc(N3CCC[C@@H]3c3cncc(F)c3)nc12"
  Cat: "bin B"
- Cpd Smiles: "CN(C)C(=O)c1cnn2ccc(N3CCC[C@@H]3c3cc(F)ccc3F)nc12"
  Cat: "bin C"
- Cpd Smiles: "O=C(N[C@@H]1CCCC[C@H]1O)c1cnn2ccc(N3CCC[C@@H]3c3cncc(F)c3)nc12"
  Cat: "bin B"
- Cpd Smiles: "CC1(O)CN(C(=O)c2cnn3ccc(N4CCC[C@@H]4c4cncc(F)c4)nc23)C1"
  Cat: "bin C"
- Cpd Smiles: "Cn1cc(F)cc([C@H]2CCCN2c2ccn3ncc(C(=O)N[C@H](CO)C(C)(C)C)c3n2)c1=O"
  Cat: "bin C"
